Where do the numbers come from? From PubChem BioAssay (NCI).

system: NCI-H522 lung; assay: NCI-60 one-dose screen, 48 h (100 = growth as untreated, 0 = no growth, -100 = all killed); details: 10 µM unless noted
Compounds without any hit were thinned out: in the full panel of roughly 83,000, 20% have a hit.
measurement type: growth (%)
Express your answer in %, writing the number without its unit.

Recorded results for 8 compounds are shown here.
{"compound": "CSCCC(C(=O)O)N1C(=O)/C(=C/c2ccc(O)c(O)c2)SC1=S (stereo not given)", "target system": "NCI-H522 lung", "observed measurement": 102}
{"compound": "COc1cccc(N2CCN(c3ncnc4c3[nH]c3ccc(F)cc34)C[C@@H]2C)c1", "target system": "NCI-H522 lung", "observed measurement": -91.8}
{"compound": "Cc1nc(-c2cc3ccccc3oc2=O)ccc1C(=O)/C=C/c1ccc(Cl)c(Cl)c1", "target system": "NCI-H522 lung", "observed measurement": 98.9}
{"compound": "N#Cc1nc(-c2ccccc2)oc1S(=O)(=O)N1CCCCC1", "target system": "NCI-H522 lung", "observed measurement": -62}
{"compound": "CO/N=C1\\CCc2c(sc(NC(=O)c3cccc(C(F)(F)F)c3)c2C(N)=O)C1", "target system": "NCI-H522 lung", "observed measurement": 26.5}
{"compound": "CN(C)CCCOc1c2ccc(Cl)cc2nc2c1oc1ccc(Cl)cc12", "target system": "NCI-H522 lung", "observed measurement": 21}
{"compound": "CC(C)(O)c1cncc(-c2ccc3ncnc(N4CCc5cc(F)c(Cl)cc54)c3c2)c1", "target system": "NCI-H522 lung", "observed measurement": 18.5}
{"compound": "Cc1ccc2ccc3ccc(C)nc3c2n1.Cc1ccc2ccc3ccc(C)nc3c2n1.Oc1c(Cl)cc(Cl)c2ccc(CN3CCCCC3)nc12.[Ru]", "target system": "NCI-H522 lung", "observed measurement": -68.8}

GET /value?item= CC(=O)Oc1ccccc1C(=O)Nc1ccc(C(=O)/C=C/c2cccs2)cc1 &field=growth returns 102

# growth (compound: COc1ccc(/C=N/NC(=O)c2[nH]c3ccc(Br)cc3c2-c2ccccc2)o1 ) is -54.6

GET /value?item= OC1CCN(CCCOc2c3ccccc3nc3c2oc2ccc(Cl)cc23)CC1 &field=growth returns -51.4

* * *

test system: SF-539 CNS; experiment: NCI-60 one-dose screen, 48 h; conditions: 10 µM unless noted
The panel holds about 83,000 compounds, 20% with a hit somewhere; the sample as a whole holds those more often. The source made the active and inactive calls. Rule for the calls: active = growth percent below 10; inactive = the rest.
Your reply should match one of these outcome classes. t for active, f for inactive

{"compound": "Cc1ccc(CNS(=O)(=O)/N=C2\\NC(=O)NC2=C(Cl)Cl)cc1", "category label": "t"}
{"compound": "O=C1C2=C(C(=O)c3c(O)cccc31)C(c1ccco1)c1sc(=O)[nH]c1S2 (centres undefined)", "category label": "t"}
{"compound": "COc1cccc(-c2nn(-c3ccccc3)cc2-c2ccnc(N3CCN(C(=O)c4ccccc4)CC3)c2)c1", "category label": "f"}
{"compound": "O=C1Nc2ccccc2Oc2ccc(S(=O)(=O)CC3CO3)cc21 (centres undefined)", "category label": "f"}
{"compound": "C/C(=N\\NC(N)=O)c1c(O)sc(=O)[nH]c1=O", "category label": "f"}
{"compound": "O=C1Nc2cc(Cl)ccc2/C1=C\\c1ccc(OCc2ccc([N+](=O)[O-])cc2)cc1", "category label": "f"}
{"compound": "O=C(CN1C(=O)/C(=C/c2ccccc2)SC1=S)N1CCOCC1", "category label": "f"}
{"compound": "CO/N=C1\\CCc2c(sc(NC(=O)c3cccc(C(F)(F)F)c3)c2C(N)=O)C1", "category label": "f"}
{"compound": "O=C1Nc2cc(Cl)ccc2/C1=C\\c1ccc(OCc2ccc(Br)cc2F)cc1", "category label": "t"}
{"compound": "COC(=O)C(C)NS(=O)(=O)/N=C1\\NC(=O)NC1=C(Cl)Cl (centres undefined)", "category label": "f"}

Ask: Name the outcome recorded for COc1cc2nc(-c3ccc(C(F)(F)F)cc3)cc(OCCCNCC3CCCO3)c2cc1OC (centres undefined) in the assay.
Result: f

Ask: Query: recorded result category for COc1cc(OC)c(C2SCC(=O)N2Nc2ncnc3ccccc23)cc1OC (centres undefined) in this test
Result: f

Ask: Tell me the assay call for O=C(N/N=C/c1ccc([N+](=O)[O-])o1)c1[nH]c2ccc(Br)cc2c1-c1ccccc1 please.
Result: t

Ask: Outcome? N#Cc1ccc(/C=N/NC(=O)c2[nH]c3ccc(Br)cc3c2-c2ccccc2)s1
Result: t
